ASSAY_SYSTEM: RSV F protein of subtype B strain 18537, on virus (respiratory syncytial virus subtype B …, UniProt P13843 26-574)
Sequence (P13843 26-574): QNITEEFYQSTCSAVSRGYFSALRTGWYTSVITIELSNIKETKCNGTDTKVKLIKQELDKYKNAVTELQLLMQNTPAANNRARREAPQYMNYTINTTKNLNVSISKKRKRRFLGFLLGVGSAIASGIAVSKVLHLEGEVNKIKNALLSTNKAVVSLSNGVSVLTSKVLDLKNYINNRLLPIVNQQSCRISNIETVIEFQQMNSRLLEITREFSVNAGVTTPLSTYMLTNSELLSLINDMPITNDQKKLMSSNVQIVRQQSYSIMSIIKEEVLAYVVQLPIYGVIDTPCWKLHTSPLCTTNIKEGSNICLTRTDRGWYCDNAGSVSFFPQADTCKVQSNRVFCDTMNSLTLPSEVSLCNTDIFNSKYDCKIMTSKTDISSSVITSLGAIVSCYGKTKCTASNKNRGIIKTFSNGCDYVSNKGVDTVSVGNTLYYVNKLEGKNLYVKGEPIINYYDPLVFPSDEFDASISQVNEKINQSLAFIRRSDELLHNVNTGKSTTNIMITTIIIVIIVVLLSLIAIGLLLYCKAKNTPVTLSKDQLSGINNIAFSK
TEST: cell-based or functional assay
OUTCOME_MEASURE: Neut IC50 (ug/ml) subtype B (µg/mL)
Answers are plain numbers, in µg/mL.

>  <BINDER>
ADI-15587 (antibody, V domains shown, IgG) VH: EVQLVESGGGVVRPGGSLRLSCAASGFKFDDYGMSWVRQAPGKGLEWVSAIIWNSGSTGYADSVKGRFIISRDNAKNSLYLQMNSLRAEDTALYYCARVGGITKWWYYGMDLWGQGTTVTVSS VL: ETTLTQSPSFLSASVGDRVTITCRASQGLSNYLAWYQQKPGRAPKLLIYAASTLQSGVPSRFRGSGSGTEFTLTISSLQPEDLATYYCQHLNSYPLTFGGGTKVEIK

>  <UNIT_STRING>
µg/mL

>  <Neut IC50 (ug/ml) subtype B>
0.13

$$$$

Consider the record given below.
Neut IC50 (ug/ml) subtype B in this record for ADI-15623 (antibody, V domains shown, IgG; also called Antibody Number 188) VH: EVQLLESGGGLVKPGGSLRLSCAASGFTIGGYNMFWVRQPPGKGLEWVSSITAGSSYLNYADSVKGRFIVSRDNAKNSLYLQMNSLRAEDTAVYFCARAPLLPAMMDLWGQGTTVTVSS VL: QSVVTQPPSVSGAPGQRVTISCTGSSSNIGAGYDVHWYQQLPGTAPKLLIYTNNNRPSGVPDRFSGSKSGTSASLAITGLQAEDEADYYCQSYDRSLNGYVFGTGTQLTVL : 0.108
